studySystem: hNaV1.7 (Homo sapiens)
Sequence (Q15858 whole entry): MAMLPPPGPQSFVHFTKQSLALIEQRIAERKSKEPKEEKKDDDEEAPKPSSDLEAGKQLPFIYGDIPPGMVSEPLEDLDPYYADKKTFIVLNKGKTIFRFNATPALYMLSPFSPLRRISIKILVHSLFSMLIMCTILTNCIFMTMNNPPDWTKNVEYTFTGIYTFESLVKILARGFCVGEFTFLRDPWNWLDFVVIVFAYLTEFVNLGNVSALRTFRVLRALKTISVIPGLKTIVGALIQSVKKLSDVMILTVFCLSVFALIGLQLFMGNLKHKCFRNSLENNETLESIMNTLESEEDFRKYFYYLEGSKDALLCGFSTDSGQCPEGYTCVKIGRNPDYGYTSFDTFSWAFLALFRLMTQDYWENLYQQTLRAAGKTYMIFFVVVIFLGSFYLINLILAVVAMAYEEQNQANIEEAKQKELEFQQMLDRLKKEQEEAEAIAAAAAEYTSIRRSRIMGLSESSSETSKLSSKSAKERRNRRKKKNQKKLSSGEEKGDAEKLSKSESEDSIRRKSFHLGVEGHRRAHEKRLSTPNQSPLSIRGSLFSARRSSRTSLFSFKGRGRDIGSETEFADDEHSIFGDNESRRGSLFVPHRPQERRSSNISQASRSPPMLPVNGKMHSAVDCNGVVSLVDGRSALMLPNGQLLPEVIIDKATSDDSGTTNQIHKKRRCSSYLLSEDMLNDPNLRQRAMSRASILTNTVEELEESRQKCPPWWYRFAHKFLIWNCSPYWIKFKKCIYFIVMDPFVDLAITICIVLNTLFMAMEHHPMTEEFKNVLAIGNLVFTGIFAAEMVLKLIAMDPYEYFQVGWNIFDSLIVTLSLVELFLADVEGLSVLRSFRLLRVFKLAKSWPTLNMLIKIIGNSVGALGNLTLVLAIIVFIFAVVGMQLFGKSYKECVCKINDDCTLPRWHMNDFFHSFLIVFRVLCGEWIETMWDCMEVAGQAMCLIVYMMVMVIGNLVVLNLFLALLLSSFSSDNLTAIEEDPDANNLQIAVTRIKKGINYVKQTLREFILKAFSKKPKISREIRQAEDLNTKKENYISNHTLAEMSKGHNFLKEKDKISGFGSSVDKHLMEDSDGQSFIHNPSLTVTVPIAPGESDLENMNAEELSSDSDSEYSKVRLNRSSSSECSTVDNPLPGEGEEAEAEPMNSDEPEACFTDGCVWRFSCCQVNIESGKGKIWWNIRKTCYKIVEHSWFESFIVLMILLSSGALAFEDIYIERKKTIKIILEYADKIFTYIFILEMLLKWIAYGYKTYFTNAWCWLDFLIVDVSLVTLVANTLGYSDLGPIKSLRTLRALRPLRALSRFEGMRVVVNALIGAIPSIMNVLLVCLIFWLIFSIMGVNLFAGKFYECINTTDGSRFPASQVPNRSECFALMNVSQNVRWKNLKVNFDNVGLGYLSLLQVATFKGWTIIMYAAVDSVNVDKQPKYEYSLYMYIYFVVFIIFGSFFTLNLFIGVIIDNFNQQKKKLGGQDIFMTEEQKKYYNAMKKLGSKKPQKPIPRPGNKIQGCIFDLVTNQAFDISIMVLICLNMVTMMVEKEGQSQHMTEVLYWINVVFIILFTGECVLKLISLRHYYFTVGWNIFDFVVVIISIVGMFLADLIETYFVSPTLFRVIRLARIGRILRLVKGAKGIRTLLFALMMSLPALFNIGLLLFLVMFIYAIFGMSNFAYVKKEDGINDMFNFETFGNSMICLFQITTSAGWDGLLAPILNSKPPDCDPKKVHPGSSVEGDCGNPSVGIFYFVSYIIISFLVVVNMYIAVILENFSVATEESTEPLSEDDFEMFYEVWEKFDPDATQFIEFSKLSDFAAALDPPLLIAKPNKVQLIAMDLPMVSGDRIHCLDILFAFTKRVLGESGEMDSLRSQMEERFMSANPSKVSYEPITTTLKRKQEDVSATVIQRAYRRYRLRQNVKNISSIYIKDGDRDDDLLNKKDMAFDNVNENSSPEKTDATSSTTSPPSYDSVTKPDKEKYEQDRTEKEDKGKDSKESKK
Sequence (Q07699 19-218 partner): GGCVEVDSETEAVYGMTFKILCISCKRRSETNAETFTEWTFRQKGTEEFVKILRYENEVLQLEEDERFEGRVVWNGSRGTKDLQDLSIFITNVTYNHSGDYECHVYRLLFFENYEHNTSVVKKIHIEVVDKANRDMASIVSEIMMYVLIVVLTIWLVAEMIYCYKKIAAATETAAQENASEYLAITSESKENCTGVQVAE
Sequence (O60939 30-215 partner): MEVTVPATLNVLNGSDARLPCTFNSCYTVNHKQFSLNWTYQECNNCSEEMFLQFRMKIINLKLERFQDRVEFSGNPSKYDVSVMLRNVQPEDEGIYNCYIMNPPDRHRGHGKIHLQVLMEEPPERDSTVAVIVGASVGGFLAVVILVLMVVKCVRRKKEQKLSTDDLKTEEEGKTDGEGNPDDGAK
protocolDetails: FDSS membrane potential in-vitro assay
conditions: HEK293 cells expressing hNaV1.7 α, β1 and β2, veratridine and scorpion venom stimulation, read-out: NaV1.7 IC50
pIC50: −log10 of the molar value.
reportedEndpoint: pIC50

Notebook: C#CCN(CCCc1cc(Cl)ccc1Oc1cc(F)c(S(=O)(=O)Nc2nccs2)cc1Cl)CC(=O)O , pIC50 read as > 7.00

* * *

studySystem: NaV1.4 (Homo sapiens, UniProt P35499)
Sequence (P35499 whole entry): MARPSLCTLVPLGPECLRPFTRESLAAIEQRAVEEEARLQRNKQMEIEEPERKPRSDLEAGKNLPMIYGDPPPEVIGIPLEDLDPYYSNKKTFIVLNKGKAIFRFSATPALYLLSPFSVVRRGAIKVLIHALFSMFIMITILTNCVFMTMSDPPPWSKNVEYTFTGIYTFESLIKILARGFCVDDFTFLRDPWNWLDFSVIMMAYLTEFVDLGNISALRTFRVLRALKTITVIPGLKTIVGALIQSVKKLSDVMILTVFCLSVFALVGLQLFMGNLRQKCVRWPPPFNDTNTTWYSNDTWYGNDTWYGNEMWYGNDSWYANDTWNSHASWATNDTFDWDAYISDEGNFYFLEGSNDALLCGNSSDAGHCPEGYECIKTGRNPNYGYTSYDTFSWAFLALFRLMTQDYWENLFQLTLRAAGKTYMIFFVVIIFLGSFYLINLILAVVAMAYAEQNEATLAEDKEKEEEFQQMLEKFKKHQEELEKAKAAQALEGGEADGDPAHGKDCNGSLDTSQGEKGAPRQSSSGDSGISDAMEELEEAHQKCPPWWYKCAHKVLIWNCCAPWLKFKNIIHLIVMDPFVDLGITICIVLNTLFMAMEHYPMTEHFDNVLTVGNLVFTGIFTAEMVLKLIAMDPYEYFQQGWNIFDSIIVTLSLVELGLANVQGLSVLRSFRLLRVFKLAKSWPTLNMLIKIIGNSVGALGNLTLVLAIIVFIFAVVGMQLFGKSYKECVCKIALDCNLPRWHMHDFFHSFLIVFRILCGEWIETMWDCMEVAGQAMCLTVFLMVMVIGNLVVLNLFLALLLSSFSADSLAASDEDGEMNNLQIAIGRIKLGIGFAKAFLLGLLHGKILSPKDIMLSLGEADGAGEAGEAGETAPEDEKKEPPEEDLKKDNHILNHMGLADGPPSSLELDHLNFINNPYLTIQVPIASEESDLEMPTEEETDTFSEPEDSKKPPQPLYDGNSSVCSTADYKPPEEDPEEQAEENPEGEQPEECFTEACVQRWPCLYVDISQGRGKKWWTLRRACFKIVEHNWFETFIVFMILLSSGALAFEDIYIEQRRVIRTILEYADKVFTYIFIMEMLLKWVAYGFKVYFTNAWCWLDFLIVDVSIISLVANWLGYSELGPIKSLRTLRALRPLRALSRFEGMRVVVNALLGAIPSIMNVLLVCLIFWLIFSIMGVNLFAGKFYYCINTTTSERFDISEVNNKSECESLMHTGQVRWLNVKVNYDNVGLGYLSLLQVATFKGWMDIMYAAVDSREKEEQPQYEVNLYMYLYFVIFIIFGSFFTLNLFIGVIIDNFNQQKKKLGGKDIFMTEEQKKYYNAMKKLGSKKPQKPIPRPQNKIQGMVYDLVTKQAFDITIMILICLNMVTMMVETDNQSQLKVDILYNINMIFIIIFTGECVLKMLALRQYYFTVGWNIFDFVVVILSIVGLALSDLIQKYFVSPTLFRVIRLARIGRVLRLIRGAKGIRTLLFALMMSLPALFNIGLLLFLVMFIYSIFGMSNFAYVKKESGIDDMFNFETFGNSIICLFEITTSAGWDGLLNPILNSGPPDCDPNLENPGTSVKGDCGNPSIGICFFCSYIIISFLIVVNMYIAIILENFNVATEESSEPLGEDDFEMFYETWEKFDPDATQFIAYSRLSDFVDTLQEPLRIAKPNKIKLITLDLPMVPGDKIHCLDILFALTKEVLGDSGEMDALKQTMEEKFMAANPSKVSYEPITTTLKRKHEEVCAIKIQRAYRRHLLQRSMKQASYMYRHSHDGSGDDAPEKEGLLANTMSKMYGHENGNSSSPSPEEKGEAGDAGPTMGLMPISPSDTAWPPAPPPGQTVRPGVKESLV
protocolDetails: Patchliner electrophysiological in-vitro assay, NaV1.4
conditions: Patchliner patch clamp, CHO cells
pIC50: −log10 of the molar value.
reportedEndpoint: pIC50

| molecule | pIC50 |
| --- | --- |
| NC(=O)CNCCCc1cc(Cl)ccc1Oc1cc(F)c(S(=O)(=O)Nc2cscn2)cc1Cl [Compound 49] | < 5.52 |

Query molecule follows.
response.value for O=C(O)CCNC(=O)c1cc(-c2cc(Cl)ccc2Oc2cc(F)c(S(=O)(=O)Nc3ncns3)cc2Cl)ccn1 [Compound 1] (field: pIC50) = < 5.52

* * *

In this section we review reported IC50 values for a set of compounds.
studySystem: NaV1.8 (Homo sapiens, UniProt Q9Y5Y9)
protocolDetails: Patchliner electrophysiological in-vitro assay, NaV1.8
conditions: Patchliner patch clamp, CHO cells

| itemSmiles | IC50 |
| --- | --- |
| NC(=O)CNCCCc1cc(Cl)ccc1Oc1cc(F)c(S(=O)(=O)Nc2cscn2)cc1Cl | > 10 µM |

Next up:
The compound O=C(O)CCNC(=O)c1cc(-c2cc(Cl)ccc2Oc2cc(F)c(S(=O)(=O)Nc3ncns3)cc2Cl)ccn1 showed IC50 equal to > 10 µM

* * *

studySystem: NaV1.3 (Homo sapiens, UniProt Q9NY46)
protocolDetails: Patchliner electrophysiological in-vitro assay, NaV1.3
Type: cell-based
Set-up: expressed in transfected cells; host or cells: CHO
conditions: Patchliner patch clamp, CHO cells; read-out: NaV 1.3 IC50
reportedEndpoint: IC50

For this compound ( O=C(O)CCNC(=O)c1cc(-c2cc(Cl)ccc2Oc2cc(F)c(S(=O)(=O)Nc3ncns3)cc2Cl)ccn1 ), measured IC50 is > 10 µM

* * *

studySystem: NaV1.1 (Homo sapiens, UniProt P35498)
protocolDetails: Patchliner electrophysiological in-vitro assay, NaV1.1
conditions: Patchliner patch clamp, CHO cells
pIC50: −log10 of the molar value.
Attribute: pIC50

| compound | pIC50 |
| --- | --- |
| O=C(O)CCNC(=O)c1cc(-c2cc(Cl)ccc2Oc2cc(F)c(S(=O)(=O)Nc3ncns3)cc2Cl)ccn1 [Compound 1] | < 5.00 |

// next entry
The reported pIC50 of the compound NC(=O)CNCCCc1cc(Cl)ccc1Oc1cc(F)c(S(=O)(=O)Nc2cscn2)cc1Cl [Compound 49] was < 5.00

* * *

studySystem: NaV1.7 (Homo sapiens)
Sequence (Q15858 whole entry): as the sequence (Q15858 whole entry) above
protocolDetails: Patchliner electrophysiological in-vitro assay, NaV1.7
conditions: Patchliner patch clamp, HEK293 cells, holding at V1/2
reportedEndpoint: IC50

Field IC50 (entry C#CCN(CCCc1cc(Cl)ccc1Oc1cc(F)c(S(=O)(=O)Nc2nccs2)cc1Cl)CC(=O)O [Compound 54] ) reads < 100 nM
